Where do the numbers come from? From PubChem BioAssay AID1919014.

# IC50 listing for each entry below
# Test system: NCI-H1341 complex spheroids, percent test/control
# protocol_description: Anticancer human tumor NCI-H1341 cell line growth inhibition [AhR];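 note: spheroids exposed to agents for seven days before readout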
# condition_summary: curve of first compound; second compound 1 µM
readout_name: IC50 (nM)

molecule: CC[C@@]1(O)C(=O)OCc2c1cc1n(c2=O)Cc2cc3c(CN(C)C)c(O)ccc3nc2-1 + CC(CO)NC(=O)c1cc(-c2ccc(Cl)cc2)nn(-c2cnn(C)c2)c1=O
measurement_target: NCI-H1341 complex spheroids, percent test/control
inequality_sign: =
reported: 48.9
//
molecule: O=C(C=Cn1cnc(-c2cc(C(F)(F)F)cc(C(F)(F)F)c2)n1)NNc1cnccn1 + CC(CO)NC(=O)c1cc(-c2ccc(Cl)cc2)nn(-c2cnn(C)c2)c1=O
measurement_target: NCI-H1341 complex spheroids, percent test/control
inequality_sign: =
reported: 53.4
//
molecule: O=C(C=Cn1cnc(-c2cc(C(F)(F)F)cc(C(F)(F)F)c2)n1)NNc1cnccn1 + Cc1ccccc1N=Nc1ccc(NC(=O)c2ccnn2C)c(C)c1
measurement_target: NCI-H1341 complex spheroids, percent test/control
inequality_sign: =
reported: 53.6
//
molecule: Nc1ncn(C2CC(O)C(CO)S2)c(=O)n1 (stereo unspecified) + CC(CO)NC(=O)c1cc(-c2ccc(Cl)cc2)nn(-c2cnn(C)c2)c1=O
measurement_target: NCI-H1341 complex spheroids, percent test/control
inequality_sign: =
reported: 223
//
molecule: Cn1ncnc1C1c2n[nH]c(=O)c3cc(F)cc(c23)NC1c1ccc(F)cc1 (stereo unspecified) + Cc1ccccc1N=Nc1ccc(NC(=O)c2ccnn2C)c(C)c1
measurement_target: NCI-H1341 complex spheroids, percent test/control
inequality_sign: >
reported: 100
//
molecule: CC(C)CC(NC(=O)C(Cc1ccccc1)NC(=O)c1cnccn1)B(O)O (stereo unspecified) + CC(CO)NC(=O)c1cc(-c2ccc(Cl)cc2)nn(-c2cnn(C)c2)c1=O
measurement_target: NCI-H1341 complex spheroids, percent test/control
inequality_sign: =
reported: 4.31

###

# Test system: NCI-H1341 complex spheroids, percent test/control
# protocol_description: Anticancer human tumor NCI-H1341 cell line growth inhibition [AhR];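 note: spheroids exposed to agents for seven days before readout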
# condition_summary: second compound 0.316 µM; first compound 0.00316 µM; stronger effect = lower value
Threshold-based label: viability, T/C under 90% gives class 1, viability, T/C not under 90% gives class 0.

compound: CC1COCCN1c1cc(-c2ccnn2C)c2ccnc(-c3ccn[nH]3)c2n1 (stereo unspecified) + Cc1ccccc1N=Nc1ccc(NC(=O)c2ccnn2C)c(C)c1
group_label: class 0
--
compound: Nc1ncn(C2CC(O)C(CO)O2)c(=O)n1 (stereo unspecified) + Cc1ccccc1N=Nc1ccc(NC(=O)c2ccnn2C)c(C)c1
group_label: class 0
--
compound: CC1COCCN1c1cc(-c2ccnn2C)c2ccnc(-c3ccn[nH]3)c2n1 (stereo unspecified) + CC(CO)NC(=O)c1cc(-c2ccc(Cl)cc2)nn(-c2cnn(C)c2)c1=O
group_label: class 0
--
compound: CC[C@@]1(O)C(=O)OCc2c1cc1n(c2=O)Cc2cc3c(CN(C)C)c(O)ccc3nc2-1 + Cc1cncc(-c2nc(NCCc3c[nH]c4ccccc34)c3ncn(C(C)C)c3n2)c1
group_label: class 1
--
compound: CC[C@@]1(O)C(=O)OCc2c1cc1n(c2=O)Cc2cc3c(CN(C)C)c(O)ccc3nc2-1 + Cc1ccccc1N=Nc1ccc(NC(=O)c2ccnn2C)c(C)c1
group_label: class 0
